study-target: human V1a receptors (Homo sapiens)
Construct: expressed in transfected cells; host or cells: CHO cells
Sequence (P37288 whole entry): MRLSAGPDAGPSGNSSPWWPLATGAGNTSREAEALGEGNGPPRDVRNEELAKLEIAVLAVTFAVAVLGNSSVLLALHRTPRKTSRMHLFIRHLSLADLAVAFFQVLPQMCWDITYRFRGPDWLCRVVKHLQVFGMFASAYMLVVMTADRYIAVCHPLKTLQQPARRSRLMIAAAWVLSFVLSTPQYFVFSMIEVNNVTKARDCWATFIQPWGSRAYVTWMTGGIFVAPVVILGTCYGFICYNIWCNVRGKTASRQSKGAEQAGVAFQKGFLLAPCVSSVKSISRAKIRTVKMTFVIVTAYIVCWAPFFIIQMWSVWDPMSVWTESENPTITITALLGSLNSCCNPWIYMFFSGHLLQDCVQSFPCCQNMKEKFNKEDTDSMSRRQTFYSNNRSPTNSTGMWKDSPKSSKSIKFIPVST
assay-comment: Human vasopressin V1a cell-based receptor binding assay (3H-AVP competition)
condition-label: cells expressing human V1a receptor, 1 nM 3H-AVP; read-out: Human V1a Binding Affinity (IC50 (nM))

compound: O=C(C(CSCc1ccccc1)N1C(=O)C(N2C(=O)OCC2c2ccccc2)C1C=Cc1ccccc1)N1CCC(CCN2CCCCC2)CC1 (stereo not shown) [Example 9B]
IC50: 0.11 nM
